- system.tested: Cathepsin D (Bos taurus, UniProt P80209)
- Sequence (P80209 whole entry): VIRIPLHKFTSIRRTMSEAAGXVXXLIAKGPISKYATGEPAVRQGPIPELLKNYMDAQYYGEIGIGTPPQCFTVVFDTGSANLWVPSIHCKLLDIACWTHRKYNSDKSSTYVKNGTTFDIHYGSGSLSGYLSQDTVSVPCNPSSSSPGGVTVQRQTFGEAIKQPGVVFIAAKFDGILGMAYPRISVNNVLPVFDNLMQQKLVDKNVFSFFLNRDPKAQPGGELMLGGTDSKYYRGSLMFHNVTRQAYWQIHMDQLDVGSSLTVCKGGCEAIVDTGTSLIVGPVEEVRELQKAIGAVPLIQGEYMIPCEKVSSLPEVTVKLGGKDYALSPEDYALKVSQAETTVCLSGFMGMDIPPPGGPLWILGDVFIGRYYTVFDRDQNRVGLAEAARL
- protocol.details: Inhibition of bovine cathepsin D at pH 3.1
measured.metric: IC50 (µM)
Form entry: value (µM) — number only.

Task: Give IC50 for CC[C@H](C)[C@H](NC(=O)C(F)(F)C(=O)[C@H](CC(C)C)NC(=O)[C@H](Cc1c[nH]cn1)NC(=O)[C@H](Cc1ccccc1)NC(=O)OC(C)(C)C)C(=O)NCc1ccccn1
Output: 40

* * *

- system.tested: Pepsin A (Sus scrofa)
- protocol.details: Inhibition of porcine pepsin at pH 4.0 (time-dependent inhibition, T1/2>30 s)
pKi: −log10 of the molar value. Where a SMILES comes first, the peptide text is derived from it. [ ]: non-standard residue; d: D form. Sta = CC(C)C[C@H](N)[C@@H](O)CC(=O)O
measured.metric: pKi

Task: Give pKi for COC(=O)[C@H](Cc1ccccc1)NC(=O)[C@H](C)NC(=O)C[C@H](O)[C@H](CC(C)C)NC(=O)[C@@H](NC(=O)CNC(=O)[C@@H](N)Cc1ccccc1)C(C)C (H-FGV[Sta]AF-OMe)
Output: > 9.00

* * *

- system.tested: Renin (Homo sapiens, UniProt P00797)
- Sequence (P00797 whole entry): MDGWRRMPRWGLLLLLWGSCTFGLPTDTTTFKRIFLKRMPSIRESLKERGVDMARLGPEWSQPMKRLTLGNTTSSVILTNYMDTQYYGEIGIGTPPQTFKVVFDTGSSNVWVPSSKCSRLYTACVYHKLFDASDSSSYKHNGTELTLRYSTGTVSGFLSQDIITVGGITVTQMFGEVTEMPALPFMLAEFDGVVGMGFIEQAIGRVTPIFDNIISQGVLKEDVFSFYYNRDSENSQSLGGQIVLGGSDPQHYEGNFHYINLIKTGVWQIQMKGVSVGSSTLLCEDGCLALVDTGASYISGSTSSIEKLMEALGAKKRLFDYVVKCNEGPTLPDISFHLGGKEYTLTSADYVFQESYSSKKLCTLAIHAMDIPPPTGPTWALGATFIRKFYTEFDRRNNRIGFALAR
- protocol.details: Inhibition of human renin at pH 6.0
*1 amine or outer side, *2 acyl side, *3 side chain or, on linkers, in order; H or OH if unused. Where a SMILES comes first, the peptide text is derived from it. [ ]: non-standard residue; d: D form. The star is where a group is joined. X1 = CC(C)CC(N[*:1])C(O)CC(C(=O)[*:2])C(C)C; NMeH = CN[C@@H](Cc1c[nH]cn1)C(=O)O; NHCH2(2-pyridyl) = c1ccc(CN*)nc1; Boc = CC(C)(C)OC(=O)*
Catalogue of IC50 readings, one per entry.
Form entry: value (nM) — number only.

Example entries begin here.
| molecule | measured.metric | test.result |
| --- | --- | --- |
| CC[C@H](C)[C@H](NC(=O)C(CC(O)C(CC(C)C)NC(=O)[C@H](Cc1c[nH]cn1)N(C)C(=O)[C@H](Cc1ccccc1)NC(=O)[C@@H]1CCCN1C(=O)OC(C)(C)C)C(C)C)C(=O)NCc1ccccn1 (stereo not given in full) (Boc-PF[NMeH][X1]I-{NHCH2(2-pyridyl)}) | IC50 | 0.26 |
| CC[C@H](C)[C@H](NC(=O)C(F)(F)C(=O)C(CC(C)C)NC(=O)[C@H](Cc1c[nH]cn1)NC(=O)[C@H](Cc1ccccc1)NC(=O)OC(C)(C)C)C(=O)NCc1ccccn1 (stereo not given in full) | IC50 | 1.4 |
| CC(C)CC(NC(=O)CCc1ccccc1)SCC(O)C(CC1CCCCC1)NC(=O)[C@H](Cc1cnc[nH]1)NC(=O)[C@H](Cc1ccccc1)NC(=O)OC(C)(C)C (stereo not given in full) | IC50 | 7 |
| COC(=O)CC(O)[C@H](CC(C)C)NC(=O)[C@H](C)NC(=O)CC(O)[C@H](CC(C)C)NC(=O)[C@H](Cc1c[nH]cn1)NC(=O)[C@H](Cc1c[nH]c2ccccc12)NC(=O)OC(C)(C)C (stereo not given in full) | IC50 | 5.5 |

# input for lookup
Task: Give IC50 for COC(=O)CC(O)[C@H](CC(C)C)NC(=O)[C@H](C)NC(=O)CC(O)[C@H](CC(C)C)NC(=O)[C@H](Cc1ccccc1)NC(=O)[C@H](Cc1ccccc1)NC(=O)OC(C)(C)C (stereo not given in full)
Output: 3.5

* * *

Catalogue of Ki readings, one per entry.
- system.tested: Pepsin A (Sus scrofa, UniProt P00791)
- Sequence (P00791 whole entry): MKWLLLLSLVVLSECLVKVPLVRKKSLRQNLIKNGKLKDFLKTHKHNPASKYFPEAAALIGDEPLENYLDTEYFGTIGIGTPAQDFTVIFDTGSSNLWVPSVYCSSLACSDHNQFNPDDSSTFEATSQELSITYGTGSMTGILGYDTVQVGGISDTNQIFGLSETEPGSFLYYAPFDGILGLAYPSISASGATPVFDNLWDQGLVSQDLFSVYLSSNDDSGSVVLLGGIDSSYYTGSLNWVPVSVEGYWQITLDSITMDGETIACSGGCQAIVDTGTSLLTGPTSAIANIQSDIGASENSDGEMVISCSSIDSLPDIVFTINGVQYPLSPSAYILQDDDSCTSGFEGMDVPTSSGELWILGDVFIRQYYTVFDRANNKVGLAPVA
- protocol.details: Inhibition of porcine pepsin at pH 4.0
*1 amine or outer side, *2 acyl side, *3 side chain or, on linkers, in order; H or OH if unused. Where a SMILES comes first, the peptide text is derived from it. [ ]: non-standard residue; d: D form. The star is where a group is joined. ξ: configuration not given here. Sta(3ξ) = CC(C)C[C@H](N[*:1])C(O)CC(=O)[*:2]; Isobutyryl = CC(C)C(=O)*
Form entry: value (nM) — number only.

| compound | test.result |
| --- | --- |
| COC(=O)[C@H](Cc1ccccc1)NC(=O)[C@H](CC(C)C)NC(=O)CC(O)[C@H](CC(C)C)NC(=O)[C@H](CC(C)C)NC(=O)COC(=O)C(C)(C)C (some centres not stated) | 12 |

Task: Give Ki for CC(C)C[C@H](NC(=O)CC(O)[C@H](CC(C)C)NC(=O)[C@H](Cc1c[nH]cn1)NC(=O)[C@H](Cc1ccccc1)NC(=O)[C@@H]1CCCN1C(=O)[C@H](Cc1c[nH]cn1)NC(=O)C(C)C)C(=O)N[C@@H](Cc1ccccc1)C(N)=O (some centres not stated) (Isobutyryl-HPFH[Sta(3ξ)]LF-NH2)
Output: 23

* * *

- system.tested: Pepsin A (Sus scrofa)
- protocol.details: Inhibition of porcine pepsin at pH 1.9
measured.metric: IC50

Task: Give IC50 for CC(C)CC(NC(=O)CCc1ccccc1)SCC(O)C(CC1CCCCC1)NC(=O)[C@H](Cc1cnc[nH]1)NC(=O)[C@H](Cc1ccccc1)NC(=O)OC(C)(C)C (stereo partly specified)
Output: > 100 µM

* * *

- system.tested: Pepsin A (Homo sapiens, UniProt P0DJD9)
- Sequence (P0DJD9 whole entry): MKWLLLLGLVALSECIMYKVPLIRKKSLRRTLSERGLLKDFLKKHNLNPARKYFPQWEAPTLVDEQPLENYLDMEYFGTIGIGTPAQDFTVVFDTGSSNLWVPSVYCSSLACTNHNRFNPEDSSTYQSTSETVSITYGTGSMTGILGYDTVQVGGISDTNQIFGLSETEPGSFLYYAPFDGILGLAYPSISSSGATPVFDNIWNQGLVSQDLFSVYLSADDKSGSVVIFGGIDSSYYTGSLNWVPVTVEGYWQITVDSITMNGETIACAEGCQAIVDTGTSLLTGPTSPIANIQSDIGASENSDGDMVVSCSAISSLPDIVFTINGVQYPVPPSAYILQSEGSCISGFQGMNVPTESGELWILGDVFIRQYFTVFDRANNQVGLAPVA
- protocol.details: Inhibition of human pepsin at pH 2.0
measured.metric: IC50 (µM)
Form entry: value (µM) — number only.

Task: Give reported IC50 for CC[C@H](C)[C@H](NC(=O)C(F)(F)C(=O)[C@H](CC(C)C)NC(=O)[C@H](Cc1c[nH]cn1)NC(=O)[C@H](Cc1ccccc1)NC(=O)OC(C)(C)C)C(=O)NCc1ccccn1 (Pepsin A (Homo sapiens, UniProt P0DJD9))
Output: 42

* * *

Catalogue of Ki readings, one per entry.
- system.tested: Pepsin A (Sus scrofa)
- protocol.details: Inhibition of porcine pepsin at pH 4.0
*1 amine or outer side, *2 acyl side, *3 side chain or, on linkers, in order; H or OH if unused. Where a SMILES comes first, the peptide text is derived from it. [ ]: non-standard residue; d: D form. The star is where a group is joined. ξ: configuration not given here. Sta(3ξ) = CC(C)C[C@H](N[*:1])C(O)CC(=O)[*:2]; Isobutyryl = CC(C)C(=O)*
Form entry: value (nM) — number only.

| compound | Ki / nM |
| --- | --- |
| CC(C)C[C@H](NC(=O)CC(O)[C@H](CC(C)C)NC(=O)[C@H](Cc1c[nH]cn1)NC(=O)[C@H](Cc1ccccc1)NC(=O)[C@@H]1CCCN1C(=O)[C@@H](N)Cc1c[nH]cn1)C(=O)N[C@@H](Cc1ccccc1)C(N)=O (some centres undefined) (H-HPFH[Sta(3ξ)]LF-NH2) | 34 |

Task: Give Ki for COC(=O)[C@H](Cc1ccccc1)NC(=O)[C@H](CC(C)C)NC(=O)CC(O)[C@H](CC(C)C)NC(=O)[C@H](Cc1c[nH]cn1)NC(=O)COC(=O)C(C)(C)C (some centres undefined)
Output: 67

Task: Give Ki for CC(C)C[C@H](NC(=O)CC(O)[C@H](CC(C)C)NC(=O)[C@H](C)NC(=O)[C@H](Cc1ccccc1)NC(=O)[C@@H]1CCCN1C(=O)[C@H](Cc1c[nH]cn1)NC(=O)C(C)C)C(=O)N[C@@H](Cc1ccccc1)C(N)=O (some centres undefined) (Isobutyryl-HPFA[Sta(3ξ)]LF-NH2)
Output: 4

* * *

- system.tested: Pepsin A (Sus scrofa)
- protocol.details: Inhibition of porcine pepsin at pH 2.0
pIC50: −log10 of the molar value. *1 amine or outer side, *2 acyl side, *3 side chain or, on linkers, in order; H or OH if unused. Where a SMILES comes first, the peptide text is derived from it. [ ]: non-standard residue; d: D form. The star is where a group is joined. X1 = CC(C)CC(N[*:1])C(O)CC(C(=O)[*:2])C(C)C; NMeH = CN[C@@H](Cc1c[nH]cn1)C(=O)O; NHCH2(2-pyridyl) = c1ccc(CN*)nc1; Boc = CC(C)(C)OC(=O)*
Label rule, in plain words: pIC50 of 6 and up is label 1, under 6 is label 0.

Some entries whose results are on file:
| compound | group |
| --- | --- |
| COC(=O)CC(O)[C@H](CC(C)C)NC(=O)[C@H](C)NC(=O)CC(O)[C@H](CC(C)C)NC(=O)[C@H](Cc1ccccc1)NC(=O)[C@H](Cc1ccccc1)NC(=O)OC(C)(C)C (stereo partly specified) | label 1 |
| COC(=O)CC(O)[C@H](CC(C)C)NC(=O)[C@H](C)NC(=O)CC(O)[C@H](CC(C)C)NC(=O)[C@@H](NC(=O)[C@H](Cc1ccccc1)NC(=O)OCc1ccccc1)C(C)C (stereo partly specified) | label 1 |

Next:
Task: Is reported pIC50 greater than or equal to 6 here: CC[C@H](C)[C@H](NC(=O)C(CC(O)C(CC(C)C)NC(=O)[C@H](Cc1c[nH]cn1)N(C)C(=O)[C@H](Cc1ccccc1)NC(=O)[C@@H]1CCCN1C(=O)OC(C)(C)C)C(C)C)C(=O)NCc1ccccn1 (stereo partly specified) (Boc-PF[NMeH][X1]I-{NHCH2(2-pyridyl)})
Output: label 0
